- Test system: zebrafish larvae
- Protocol summary: Zebrafish larval toxicity (NOEC, lethal dose)
- Assay type: in vivo
- Cond: 7 dpf zebrafish larvae; highest sub-lethal dose
Documented Highest concentration tested for anti-seizure activity across a set of compounds

Query: Highest concentration tested for anti-seizure activity of C#CCNC1=CC(=O)c2ccccc2C1=O [Compound 2h] on zebrafish larvae?
Response: 0.02 mM

Query: Highest concentration tested for anti-seizure activity of CCCC(CCC)C(=O)O [Valproic Acid (VPA), 2-n-propylpentanoic acid] on zebrafish larvae?
Response: 4 mM

Query: Highest concentration tested for anti-seizure activity of CC1=CC(=O)c2ccccc2C1=O [VK3, menadione, reference compound] on zebrafish larvae?
Response: 0.006 mM

---

- Protocol summary: In vitro neurotoxicity without glutamate (MTS cell viability)
- Type: cell-based, mouse
- Cond: mouse, HT22 neuronal cells (without glutamate); HT22 cells without glutamate, 24 hrs, MTS; concentration producing 50% toxicity; read-out: Toxicity TC50
Measured endpoint: CC50 at 24 h

Worked examples, 3 compounds total:
Smi	CC50 at 24 h
O=C(Cc1ccc(-c2ccccc2)cc1)NC1=CC(=O)c2ccccc2C1=O	42 µM
CC(C)NC(=O)NC1=CC(=O)c2ccccc2C1=O	8 µM
CC(C)C(=O)NC1=CC(=O)c2ccccc2C1=O	8 µM

Query: Looking for the measured CC50 at 24 h of "O=C(NC1=CC(=O)c2ccccc2C1=O)c1cccc(Cl)c1" , can you help?
Response: > 100 µM

---

- Protocol summary: In vitro neurotoxicity without glutamate (MTS cell viability)
- Assay type: cell-based, mouse
- Cond: mouse, HT22 neuronal cells (without glutamate); HT22 cells without glutamate, 24 hrs, MTS; concentration producing 50% toxicity; read-out: Toxicity TC50
Measured endpoint: CC50 at 24 h

Worked examples, 5 molecules total:
Molecule	CC50 at 24 h
O=C(Nc1ccccc1)c1coc2ccccc2c1=O [4-oxo-N-phenyl-4H-chromene-3-carboxamide]	> 100 µM
O=C(NC1=CC(=O)c2ccccc2C1=O)c1ccc(Cl)cc1 [Compound 3i]	27 µM
O=C(O)c1cc(=O)c2ccccc2o1	> 100 µM
O=C1C=C(NC(=O)C2CCCC2)C(=O)c2ccccc21 [Compound 3e]	6 µM
O=C(Nc1ccccc1)c1cc(=O)c2ccccc2o1 [4-oxo-N-phenyl-4H-chromene-2-carboxamide]	> 100 µM

Query: Looking for the measured CC50 at 24 h of O=C1C=C(NC(=O)C2CCCCC2)C(=O)c2ccccc21 [Compound 3f] , can you help?
Response: 14 µM

Query: Looking for the measured CC50 at 24 h of O=C(NC1=CC(=O)c2ccccc2C1=O)Nc1ccccc1 [Compound 4c] , can you help?
Response: > 100 µM

Query: Looking for the measured CC50 at 24 h of O=C(NC1=CC(=O)c2ccccc2C1=O)c1ccccc1 [Compound 3g] , can you help?
Response: 17 µM

Query: Looking for the measured CC50 at 24 h of "O=C(O)c1coc2ccccc2c1=O" , can you help?
Response: > 100 µM

Query: Looking for the measured CC50 at 24 h of Cc1ccc(C(=O)NC2=CC(=O)c3ccccc3C2=O)cc1 [Compound 3h] , can you help?
Response: 24 µM

---

- Test system: HT22 cells
- Protocol summary: In vitro neuroprotective activity against glutamate-induced cell death (MTS cell viability)
- Format: cell-based, mouse
- Cond: Mus musculus, HT-22, 24 h, read-out: Protection PC50
Measured endpoint: log10 EC50 (log10 of the value in nM)
In plain terms, each number is the log10 of measured EC50 in nM.

Compound	Measured endpoint	Experimental result
O=C1C=C(Nc2ccccc2)C(=O)c2ccccc21 [Compound 2i, 2-(phenylamino)naphthalene-1,4-dione]	log10 EC50	1.81
O=C(NC1=CC(=O)c2ccccc2C1=O)c1ccccc1 [Compound 3g]	log10 EC50	2.70
O=C1C=C(O)C(=O)c2ccccc21 [Compound 1g]	log10 EC50	3.00
Cc1ccc(CNC2=CC(=O)c3ccccc3C2=O)cc1 [Compound 2r]	log10 EC50	1.82

Now take the following compound into account.
Query: Looking for the measured log10 EC50 of NC1=CC(=O)c2ccccc2C1=O [Compound 1d, 2-amino-1,4-naphthoquinone] , can you help?
Response: 1.79

---

Documented EC50 across a set of compounds
- Tested on: HT22 cells
- Protocol summary: In vitro neuroprotective activity against glutamate-induced cell death (MTS cell viability)
- Type: cell-based, mouse
- Cond: Mus musculus, HT-22; HT22 cells, 10 mM glutamate, 24 hrs, MTS; concentration producing 50% protection; read-out: Protection PC50

Worked examples, 9 compounds total:
Compound	EC50
O=C(NCc1ccccc1)NC1=CC(=O)c2ccccc2C1=O [Compound 4d]	740 nM
O=C(NC1=CC(=O)c2ccccc2C1=O)Nc1ccccc1 [Compound 4c]	890 nM
O=C(O)c1coc2ccccc2c1=O	> 1000 nM
COC(=O)c1ccc(CNC2=CC(=O)c3ccccc3C2=O)cc1 [Compound 2t]	232 nM
O=C1C=C(NC(=O)C2CCCC2)C(=O)c2ccccc21 [Compound 3e]	> 1000 nM
O=C1C=C(NC(=O)C2CCCCC2)C(=O)c2ccccc21 [Compound 3f]	275 nM
CC(C)NC(=O)NC1=CC(=O)c2ccccc2C1=O [Compound 4b]	64 nM
O=C1C=C(NCc2ccccc2)C(=O)c2ccccc21 [Compound 2j, 2-(benzylamino)naphthalene-1,4-dione]	88 nM
CC(C)C(=O)NC1=CC(=O)c2ccccc2C1=O [Compound 3d]	> 1000 nM

Now take the following compound into account.
Query: Looking for the measured EC50 of CN(Cc1ccccc1)C1=CC(=O)c2ccccc2C1=O [Compound 2k] , can you help?
Response: 128 nM

---

- System: HT22 cells
- Protocol summary: In vitro neurotoxicity without glutamate (MTS cell viability)
- Assay type: cell-based, mouse
- Cond: HT22 cells
Documented Safety Index TC50/PC50 across a set of molecules

Worked examples, 8 molecules total:
Molecule	Safety Index TC50/PC50
C#CCNC1=CC(=O)c2ccccc2C1=O [Compound 2h]	442
O=C1C=C(NC(=O)C2CCCCC2)C(=O)c2ccccc21 [Compound 3f]	51
Cc1ccc(C(=O)NC2=CC(=O)c3ccccc3C2=O)cc1 [Compound 3h]	63
O=C(O)C1=CC(=O)c2ccccc2C1=O [Compound 1f]	140
CCC(=O)NC1=CC(=O)c2ccccc2C1=O [Compound 3b]	105
O=C1C=C(NCC2CCCCC2)C(=O)c2ccccc21 [Compound 2g]	1,852
O=C1C=C(O)C(=O)c2ccccc21 [Compound 1g]	100
O=C1C=C(NCc2ccccn2)C(=O)c2ccccc21 [Compound 2o]	54

Now take the following molecule into account.
Query: Looking for the measured Safety Index TC50/PC50 of CC(C)NC1=CC(=O)c2ccccc2C1=O [Compound 2d, 2-(isopropylamino)naphthalene-1,4-dione] , can you help?
Response: 27

---

- Protocol summary: Antioxidant activity assay (DPPH free radical scavenging)
- Cond: 20 μM, 100 μM DPPH in methanol
Measured endpoint: free radical scavenging capacity (DPPH absorbance)

Molecule	Experimental result
O=C1O[C@H]([C@@H](O)CO)C(O)=C1O	rapidly scavenged DPPH
Cc1c(C)c2c(c(C)c1O)CCC(C)(C(=O)O)O2 (stereo not shown)	rapidly scavenged DPPH

---

Documented CC50 across a set of compounds
- System: HT22 cells
- Protocol summary: In vitro neurotoxicity without glutamate (MTS cell viability)
- Type: cell-based, mouse
- Cond: HT22 cells without glutamate, 24 hrs, MTS; concentration producing 50% toxicity; read-out: Toxicity TC50

Smi	System tested	CC50
COC(=O)c1ccc(CNC2=CC(=O)c3ccccc3C2=O)cc1	HT22 cells	> 100 µM
O=C1C=C(NCCc2ccccc2)C(=O)c2ccccc21	HT22 cells	> 100 µM
O=C1C=C(NCC2CCCCC2)C(=O)c2ccccc21	HT22 cells	> 100 µM

Now take the following compound into account.
Query: CC50 of "O=C1C=C(NCc2ccc(Cl)c(Cl)c2)C(=O)c2ccccc21" on HT22 cells?
Response: > 100 µM

---

- Test system: HT22 cells
- Protocol summary: In vitro neurotoxicity without glutamate (MTS cell viability)
- Type: cell-based, mouse
- Cond: HT22 cells
Respond with fulfilled for Safety Index TC50/PC50 values of 100 and above, not fulfilled for values below.

Compound	Category label
COC(=O)c1ccc(CNC2=CC(=O)c3ccccc3C2=O)cc1 [Compound 2t]	fulfilled
CCNC(=O)NC1=CC(=O)c2ccccc2C1=O [Compound 4a]	not fulfilled
O=C(NC1=CC(=O)c2ccccc2C1=O)Nc1ccccc1 [Compound 4c]	fulfilled

Query: API: above_or_equal(metric=Safety Index TC50/PC50, cutoff=100) for item CC(C)C(=O)NC1=CC(=O)c2ccccc2C1=O [Compound 3d]
Response: not fulfilled

Query: API: above_or_equal(metric=Safety Index TC50/PC50, cutoff=100) for item CC(C)NC(=O)NC1=CC(=O)c2ccccc2C1=O [Compound 4b]
Response: fulfilled

Query: API: above_or_equal(metric=Safety Index TC50/PC50, cutoff=100) for item O=C(NC1=CC(=O)c2ccccc2C1=O)c1ccccc1 [Compound 3g]
Response: not fulfilled

Query: API: above_or_equal(metric=Safety Index TC50/PC50, cutoff=100) for item O=C1C=C(NCCc2ccccc2)C(=O)c2ccccc21 [Compound 2l]
Response: fulfilled

Query: API: above_or_equal(metric=Safety Index TC50/PC50, cutoff=100) for item CNC1=CC(=O)c2ccccc2C1=O [Compound 2a, 2-(methylamino)naphthalene-1,4-dione]
Response: not fulfilled

Query: API: above_or_equal(metric=Safety Index TC50/PC50, cutoff=100) for item CC(=O)NC1=CC(=O)c2ccccc2C1=O [Compound 3a]
Response: fulfilled
